- Target: Gal6S(b1-4)Glc6S
- Experiment: glycan array binding signal (z-score within array); higher = stronger binding
- Measurement conditions: glycan notation: IUPAC condensed, linker removed
Many of the other results were omitted from the sample, so the strongest signals are more common in it than they were.

# Binder, glycan array binding signal (z-score)
records = [
    ("Clec12b (Mus musculus), Q149M0 (protein) MSDEVTYATLMLQDSARVRGNQDGNNLRKEGHPAQSSLWRGAALSLMTLCLVLVTGLVTLATMFLQVSNDINSDSEKLSQLQKSIHPQQDNLSESLNSSRKSLTEESLQSQISALLERQEQMATKLCKEFLIHASDHKCNPCPKTWQWYGNSCYYFSINEEKSWSDSRKDCIDKNATLVKIDSTEERDLLQSQLSLTFSFFWLGLSWNSSGRNWLWEDGSFPPPTLFSDKELASFNGSRDCAYFERGNIYASRCSAEIPWICEKTASLVKTEDLD", 1.24),
]
